molecular target: Aminopeptidase N (Plasmodium falciparum (isolate 3D7)) (UniProt O96935); assay: malaria alanyl aminopeptidase activity blockers – biochemical, fluorogenic H-Leu-NHMec substrate, 1536-well (AID 1445); details: recombinant M1AAP, H-Leu-NHMec fluorogenic kinetic assay; at 30 µM, hits give high values unless noted;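 note: plate controls were DMSO full reaction for no effect and no enzyme background for full effect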
Sequence (O96935 whole entry, looked up): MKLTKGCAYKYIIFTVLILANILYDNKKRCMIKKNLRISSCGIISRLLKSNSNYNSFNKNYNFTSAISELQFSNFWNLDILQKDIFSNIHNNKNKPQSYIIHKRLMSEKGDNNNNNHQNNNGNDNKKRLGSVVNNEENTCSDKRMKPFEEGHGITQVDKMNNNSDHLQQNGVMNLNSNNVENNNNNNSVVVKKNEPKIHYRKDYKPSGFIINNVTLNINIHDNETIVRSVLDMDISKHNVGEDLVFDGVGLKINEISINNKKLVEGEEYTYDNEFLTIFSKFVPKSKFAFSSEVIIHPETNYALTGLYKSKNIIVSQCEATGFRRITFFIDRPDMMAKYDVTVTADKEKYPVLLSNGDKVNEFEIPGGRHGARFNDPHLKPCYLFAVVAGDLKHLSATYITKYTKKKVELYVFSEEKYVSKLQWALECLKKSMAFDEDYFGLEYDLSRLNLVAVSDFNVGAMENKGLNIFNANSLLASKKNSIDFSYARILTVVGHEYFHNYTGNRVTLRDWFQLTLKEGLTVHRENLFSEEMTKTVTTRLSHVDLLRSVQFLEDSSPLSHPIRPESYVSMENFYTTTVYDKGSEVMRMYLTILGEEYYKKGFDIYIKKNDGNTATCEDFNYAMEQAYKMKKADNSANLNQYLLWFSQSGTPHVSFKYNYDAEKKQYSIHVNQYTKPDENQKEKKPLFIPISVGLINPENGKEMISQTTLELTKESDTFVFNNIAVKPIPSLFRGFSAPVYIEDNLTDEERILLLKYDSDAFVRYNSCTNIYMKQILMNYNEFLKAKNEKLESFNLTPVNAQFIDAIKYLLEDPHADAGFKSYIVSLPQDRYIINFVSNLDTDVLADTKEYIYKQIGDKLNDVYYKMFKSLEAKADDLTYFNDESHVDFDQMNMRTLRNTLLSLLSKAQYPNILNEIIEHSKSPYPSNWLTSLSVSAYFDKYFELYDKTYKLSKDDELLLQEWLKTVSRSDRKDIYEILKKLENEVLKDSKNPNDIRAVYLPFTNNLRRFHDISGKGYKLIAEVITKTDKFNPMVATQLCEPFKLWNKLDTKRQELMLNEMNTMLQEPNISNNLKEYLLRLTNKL
Hit rate of the full screen: of about 220,000 compounds, about 910 (0.41%) were called active. Only a selection was taken, and actives are over-represented in it overall. Potency and affinity values are given separately.
Measured metric: inhibition

CSc1ccc(Cl)c(C(=O)NC2CCCC2)c1 | 1.66% (inactive)

Next compound, please.
Lab note: measured inhibition of N#CC1=C(N)C2=CCCC[C@H]2[C@H](c2ccc(Br)cc2)C1(C#N)C#N was 1.37% (inactive)
